In this section, each of the compounds is paired with its reported IC50 (log10 nM).
# Test system: murine normal gastric organoid
# experiment: IC50 (viability, PrestoBlue) (log10 nM)
# condition-details: exposure time: 72 h
Structures can show the parent of a compound that is named as a salt.
Please reply with the value in numeric form only.

COc1cc2c(Oc3ccc4[nH]c(C)cc4c3F)ncnc2cc1OCCCN1CCCC1 [Cediranib maleate]    3.38

Query compound follows.
input: For Cc1c(N)nc([C@H](CC(N)=O)NC[C@H](N)C(N)=O)nc1C(=O)N[C@H](C(=O)N[C@H](C)[C@@H](O)[C@H](C)C(=O)N[C@H](C(=O)NCCc1nc(-c2nc(C(=O)NCCC[S+](C)C)cs2)cs1)[C@@H](C)O)[C@@H](OC1OC(CO)C(O)C(O)C1OC1OC(CO)C(O)C(OC(N)=O)C1O)c1cnc[nH]1 (stereo partly specified) , what is its reported IC50 (log10 nM)?
output: 3.85

###

# Test system: murine gastric organoid WNT-activated (Apc fl/fl; Tp53 R172H)
# experiment: IC50 (viability, PrestoBlue) (log10 nM)
# condition-details: exposure time: 72 h
Counter-ions that a name gives are not always drawn.
In this section, each of the compounds is paired with its reported IC50 (log10 nM).
Please reply with the value in numeric form only.

CNC(=O)c1cc(Oc2ccc(NC(=O)Nc3ccc(Cl)c(C(F)(F)F)c3)cc2)ccn1 [Sorafenib]    3.9
C=CC(=O)N1CCC[C@@H](n2nc(-c3ccc(Oc4ccccc4)cc3)c3c(N)ncnc32)C1 [Ibrutinib]    2.48
O=C(c1ccc(F)c(F)c1Nc1ccc(I)cc1F)N1CC(O)([C@@H]2CCCCN2)C1 [Cobimetinib]    1.82
Cc1ccc(C(=O)Nc2ccc(CN3CCN(C)CC3)c(C(F)(F)F)c2)cc1C#Cc1cnc2cccnn12 [Ponatinib]    1.71
CC1(C)CCC(CN2CCN(c3ccc(C(=O)NS(=O)(=O)c4ccc(NCC5CCOCC5)c([N+](=O)[O-])c4)c(Oc4cnc5[nH]ccc5c4)c3)CC2)=C(c2ccc(Cl)cc2)C1 [ABT-199]    3.1
CCCCC(=O)OCC(=O)[C@]1(O)Cc2c(O)c3c(c(O)c2[C@@H](O[C@H]2C[C@H](NC(=O)C(F)(F)F)[C@H](O)[C@H](C)O2)C1)C(=O)c1c(OC)cccc1C3=O [Valrubicin]    2.65
O=C(CCCCCCC(=O)Nc1ccccc1)NO [Vorinostat]    3.67
CC[C@@]1(O)C(=O)OCc2c1cc1n(c2=O)Cc2cc3c(CN(C)C)c(O)ccc3nc2-1 [Topotecan hydrochloride]    2.36

input: I'm curious: which IC50 (log10 nM) was measured for Nc1nc(=S)c2[nH]cnc2[nH]1 [6-Thioguanine] tested on murine gastric organoid WNT-activated (Apc fl/fl; Tp53 R172H)?
output: 1.35

input: I'm curious: which IC50 (log10 nM) was measured for COc1cccc2c1C(=O)c1c(O)c3c(c(O)c1C2=O)C[C@@](O)(C(C)=O)C[C@@H]3O[C@H]1C[C@H](N)[C@H](O)[C@H](C)O1 [Daunorubicin hydrochloride] tested on murine gastric organoid WNT-activated (Apc fl/fl; Tp53 R172H)?
output: 1.73

input: I'm curious: which IC50 (log10 nM) was measured for CN(N=O)C(=O)N[C@@H](C=O)[C@@H](O)[C@H](O)[C@H](O)CO [Streptozocin] tested on murine gastric organoid WNT-activated (Apc fl/fl; Tp53 R172H)?
output: 4.07

###

In this section, each of the compounds is paired with its reported IC50 (log10 nM).
# System: murine gastric organoid WNT-activated (Apc fl/fl; Tp53 R172H)
# experiment: IC50 (viability, PrestoBlue) (log10 nM)
# condition-details: exposure time: 72 h
Please reply with the value in numeric form only.

Record excerpt, results attached:
Cn1nccc1Nc1nccc(-c2ccn([C@H](CO)c3ccc(Cl)c(F)c3)c(=O)c2)n1 [GDC-0994]    2.88
O=C(O)CCCc1ccc(N(CCCl)CCCl)cc1 [Chlorambucil]    3.92
C[C@@H](Oc1cc(-c2cnn(C3CCNCC3)c2)cnc1N)c1c(Cl)ccc(F)c1Cl [Crizotinib]    2.95
COc1cc(Nc2c(C#N)cnc3cc(OCCCN4CCN(C)CC4)c(OC)cc23)c(Cl)cc1Cl [Bosutinib]    3.01
CC(C)C[C@H](NC(=O)[C@H](CCc1ccccc1)NC(=O)CN1CCOCC1)C(=O)N[C@@H](Cc1ccccc1)C(=O)N[C@@H](CC(C)C)C(=O)[C@@]1(C)CO1 [Carfilzomib]    1.32
CC(C)C[C@H](NC(=O)[C@H](Cc1ccccc1)NC(=O)c1cnccn1)B(O)O [Bortezomib]    1.16
Cn1cnc2c(F)c(Nc3ccc(Br)cc3F)c(C(=O)NOCCO)cc21 [Binimetinib]    2.96
Cc1ccc(F)c(NC(=O)Nc2ccc(-c3cccc4[nH]nc(N)c34)cc2)c1 [Linifanib]    3.77

Query compound follows.
input: For O=C(Nc1cccc(Cl)c1)Nc1ncc(CCNc2ncnc3ccsc23)s1 [SNS-314] , what is its reported IC50 (log10 nM)?
output: 2.87

###

# System: murine normal gastric organoid
# experiment: IC50 (viability, PrestoBlue) (log10 nM)
# condition-details: exposure time: 72 h
Where a name gives a salt, the structure may show the parent alone.
Class membership depends on IC50 (log10 nM) alone; the intervals are lo (below 2), mid (2 to below 3), hi (3 or more)

CC(=O)Nc1cccc(-n2c(=O)n(C3CC3)c(=O)c3c(Nc4ccc(I)cc4F)n(C)c(=O)c(C)c32)c1    lo

input: Into which bin does this molecule go? CNC(=O)[C@@H](NC(=O)[C@H](CC(C)C)[C@H](O)C(=O)NO)C(C)(C)C
output: hi

input: Into which bin does this molecule go? CC[C@@]1(O)C(=O)OCc2c1cc1n(c2=O)Cc2cc3c(CN(C)C)c(O)ccc3nc2-1 [Topotecan hydrochloride]
output: lo

input: Into which bin does this molecule go? CC(C)[C@H](O)C(=O)N[C@@H](C)C(=O)N[C@@H]1C(=O)N(C)CCc2ccccc21
output: hi

input: Into which bin does this molecule go? CCCCC(=O)OCC(=O)[C@]1(O)Cc2c(O)c3c(c(O)c2[C@@H](O[C@H]2C[C@H](NC(=O)C(F)(F)F)[C@H](O)[C@H](C)O2)C1)C(=O)c1c(OC)cccc1C3=O
output: mid

###

# Tested on: murine gastric organoid diffuse (Cdh1 fl/fl; Apc fl/fl)
# experiment: IC50 (viability, PrestoBlue) (log10 nM)
# condition-details: exposure time: 72 h
Structures can show the parent of a compound that is named as a salt.
In this section, each of the molecules is paired with its reported IC50 (log10 nM).
Please reply with the value in numeric form only.

Record excerpt, results attached:
CCOc1cc2ncc(C#N)c(Nc3ccc(OCc4ccccn4)c(Cl)c3)c2cc1NC(=O)/C=C/CN(C)C    3.13
COC(=O)C[C@](O)(CCCC(C)(C)O)C(=O)O[C@@H]1C(OC)=C[C@]23CCCN2CCc2cc4c(cc2[C@H]13)OCO4    1.82

input: I'm curious: which IC50 (log10 nM) was measured for COC(=O)[C@]12CCC(C)(C)C[C@H]1[C@H]1C(=O)C=C3[C@@]4(C)C=C(C#N)C(=O)C(C)(C)[C@@H]4CC[C@@]3(C)[C@]1(C)CC2 tested on murine gastric organoid diffuse (Cdh1 fl/fl; Apc fl/fl)?
output: 3.24

input: I'm curious: which IC50 (log10 nM) was measured for CCNC(=O)C[C@@H]1N=C(c2ccc(Cl)cc2)c2cc(OC)ccc2-n2c(C)nnc21 tested on murine gastric organoid diffuse (Cdh1 fl/fl; Apc fl/fl)?
output: 3.13

input: I'm curious: which IC50 (log10 nM) was measured for C=CC(=O)N1CCC[C@@H](n2nc(-c3ccc(Oc4ccccc4)cc3)c3c(N)ncnc32)C1 tested on murine gastric organoid diffuse (Cdh1 fl/fl; Apc fl/fl)?
output: 2.53

input: I'm curious: which IC50 (log10 nM) was measured for O=c1[nH]cc(F)c(=O)[nH]1 tested on murine gastric organoid diffuse (Cdh1 fl/fl; Apc fl/fl)?
output: 3.28

input: I'm curious: which IC50 (log10 nM) was measured for O=C(O)CCCc1ccc(N(CCCl)CCCl)cc1 tested on murine gastric organoid diffuse (Cdh1 fl/fl; Apc fl/fl)?
output: 2.48

input: I'm curious: which IC50 (log10 nM) was measured for CC[C@]12C=CCN3CC[C@@]4(c5cc([C@@]6(C(=O)OC)C[C@@H]7C[C@@H](C(C)(F)F)CN(Cc8c6[nH]c6ccccc86)C7)c(OC)cc5N(C)[C@H]4[C@@](O)(C(=O)OC)[C@@H]1OC(C)=O)[C@@H]32 [Vinflunine tartrate] tested on murine gastric organoid diffuse (Cdh1 fl/fl; Apc fl/fl)?
output: 2.23

input: I'm curious: which IC50 (log10 nM) was measured for Cn1cnc2c(F)c(Nc3ccc(Br)cc3Cl)c(C(=O)NOCCO)cc21 tested on murine gastric organoid diffuse (Cdh1 fl/fl; Apc fl/fl)?
output: 3.15

input: I'm curious: which IC50 (log10 nM) was measured for CO[C@@]12[C@H](COC(N)=O)C3=C(C(=O)C(C)=C(N)C3=O)N1C[C@@H]1N[C@@H]12 tested on murine gastric organoid diffuse (Cdh1 fl/fl; Apc fl/fl)?
output: 2.68

input: I'm curious: which IC50 (log10 nM) was measured for COc1cccc2c1C(=O)c1c(O)c3c(c(O)c1C2=O)C[C@@](O)(C(C)=O)C[C@@H]3O[C@H]1C[C@H](N)[C@H](O)[C@H](C)O1 [Daunorubicin hydrochloride] tested on murine gastric organoid diffuse (Cdh1 fl/fl; Apc fl/fl)?
output: 1.77

input: I'm curious: which IC50 (log10 nM) was measured for N[C@@H](Cc1ccc(N(CCCl)CCCl)cc1)C(=O)O tested on murine gastric organoid diffuse (Cdh1 fl/fl; Apc fl/fl)?
output: 3.34

input: I'm curious: which IC50 (log10 nM) was measured for Cc1ccc(NC(=O)c2ccc(CN3CCN(C)CC3)cc2)cc1Nc1nc(-c2cccnc2)cs1 [Masitinib mesylate] tested on murine gastric organoid diffuse (Cdh1 fl/fl; Apc fl/fl)?
output: 4.25

input: I'm curious: which IC50 (log10 nM) was measured for CC[C@@]1(O)C(=O)OCc2c1cc1n(c2=O)Cc2cc3c(CN(C)C)c(O)ccc3nc2-1 [Topotecan hydrochloride] tested on murine gastric organoid diffuse (Cdh1 fl/fl; Apc fl/fl)?
output: 2.4

input: I'm curious: which IC50 (log10 nM) was measured for C[C@@H](Oc1cc(-c2cnn(C3CCNCC3)c2)cnc1N)c1c(Cl)ccc(F)c1Cl tested on murine gastric organoid diffuse (Cdh1 fl/fl; Apc fl/fl)?
output: 3.22

input: I'm curious: which IC50 (log10 nM) was measured for Cc1nc(C(=O)NCC(=O)O)c(O)c2ccc(Oc3ccccc3)cc12 tested on murine gastric organoid diffuse (Cdh1 fl/fl; Apc fl/fl)?
output: 3.27
